Task for the reader: assign each of the following compounds its reported EC50.
Biological target: wt-PAH (Homo sapiens)
Experiment: Quenching of PAH Trp-emission fluorescence
Details: apparent affinity, data not shown; read-out: ligand concentration inducing a 50% decrease in Trp-fluorescence

Fill in EC50 for record Nc1c(-c2ccc3ccccc3n2)c2ccc([N+](=O)[O-])cc2c(=O)n1Cc1ccccc1
~30 µM

Return EC50 (reported value) for this compound: Cc1ccnc(-n2c(=S)[nH]c3sc(C)c(C)c3c2=O)c1
~3 µM

---

Molecular target: wt-PAH (Homo sapiens)
Construct: made in house; host or cells: E. coli
Sequence (P00439 1-452): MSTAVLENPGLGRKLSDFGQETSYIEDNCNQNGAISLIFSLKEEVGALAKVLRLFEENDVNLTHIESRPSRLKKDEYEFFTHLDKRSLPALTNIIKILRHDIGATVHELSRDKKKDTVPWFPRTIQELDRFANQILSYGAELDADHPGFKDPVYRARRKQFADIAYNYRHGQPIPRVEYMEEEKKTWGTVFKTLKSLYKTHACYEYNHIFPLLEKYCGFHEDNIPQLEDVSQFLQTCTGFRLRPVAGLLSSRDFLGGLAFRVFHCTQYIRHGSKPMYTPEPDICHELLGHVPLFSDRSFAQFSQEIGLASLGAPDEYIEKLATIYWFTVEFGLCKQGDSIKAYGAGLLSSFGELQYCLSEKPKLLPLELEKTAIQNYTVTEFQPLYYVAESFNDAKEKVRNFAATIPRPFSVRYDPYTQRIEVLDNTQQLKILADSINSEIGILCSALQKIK
Assay: ANS-monitored thermal unfolding of wt-PAH
Type: binding
Conditions: 100 μM compound; mean ± SD
Consider the following compounds; for each one, report its T0.5 PAHwt (half denaturation temperature).
Unit °C implied. Number only.

Recall and state the measured T0.5 PAHwt (half denaturation temperature) for Cn1cnc([N+](=O)[O-])c1N1CCN(C(c2ccccc2)c2ccccc2)CC1 .
52.2

Tell us which T0.5 PAHwt (half denaturation temperature) value is on record for Nc1c(-c2ccc3ccccc3n2)c2ccc([N+](=O)[O-])cc2c(=O)n1Cc1ccccc1
63.1

# return recorded T0.5 PAHwt (half denaturation temperature) for entry Cc1onc(-c2ccccc2)c1-c1n[nH]c(N)c1C#N
52.1

Given Cc1ccnc(-n2c(=S)[nH]c3sc(C)c(C)c3c2=O)c1 , respond with its T0.5 PAHwt (half denaturation temperature).
56.7

---

Target: wt-PAH (Homo sapiens, UniProt P00439)
Construct: made in house; host or cells: E. coli
Experiment: ANS-monitored thermal unfolding of wt-PAH
Format: binding
Conditions: 100 μM compound, vs no ligand
Exercise: for every item that follows, state its recorded ΔT0.5 PAHwt.

State its ΔT0.5 PAHwt for this compound: Cc1onc(-c2ccccc2)c1-c1n[nH]c(N)c1C#N [Compound 5]
2.6 °C

Provide one value: measured ΔT0.5 PAHwt of Cn1cnc([N+](=O)[O-])c1N1CCN(C(c2ccccc2)c2ccccc2)CC1 [Compound 6]
2.7 °C

Look up ΔT0.5 PAHwt of Nc1c(-c2ccc3ccccc3n2)c2ccc([N+](=O)[O-])cc2c(=O)n1Cc1ccccc1 [Compound 11] and report it.
13.6 °C

Specify ΔT0.5 PAHwt for Cc1ccnc(-n2c(=S)[nH]c3sc(C)c(C)c3c2=O)c1 [Compound 13] and stop.
7.2 °C

---

Target: wt-PAH (Homo sapiens, UniProt P00439)
Construct: made in house; host or cells: E. coli
Experiment: Enzyme kinetic analysis of recombinant PAH activity
Assay type: biochemical
Details: 100 μM compound; 1 mM L-Phe, BH4 0-200 μM; not preincubated; mean ± S.E.
endpoint: Vmax, BH4, No preincubation (μmol L-Tyr/min·mg)
Write the answer as a number in μmol L-Tyr/min·mg, unit excluded.

Find the measured Vmax, BH4, No preincubation of Cn1cnc([N+](=O)[O-])c1N1CCN(C(c2ccccc2)c2ccccc2)CC1 with wt-PAH (Homo sapiens, UniProt P00439) as test system.
0.81

Output reported Vmax, BH4, No preincubation of the compound Cc1ccnc(-n2c(=S)[nH]c3sc(C)c(C)c3c2=O)c1 on wt-PAH (Homo sapiens, UniProt P00439).
0.85

# return Vmax, BH4, No preincubation of Nc1c(-c2ccc3ccccc3n2)c2ccc([N+](=O)[O-])cc2c(=O)n1Cc1ccccc1 (system: wt-PAH (Homo sapiens, UniProt P00439))
0.86

Find the measured Vmax, BH4, No preincubation of Cc1onc(-c2ccccc2)c1-c1n[nH]c(N)c1C#N with wt-PAH (Homo sapiens, UniProt P00439) as test system.
0.80

---

Target: wt-PAH (Homo sapiens, UniProt P00439)
Construct: made in house; host or cells: E. coli
Sequence (P00439 1-452): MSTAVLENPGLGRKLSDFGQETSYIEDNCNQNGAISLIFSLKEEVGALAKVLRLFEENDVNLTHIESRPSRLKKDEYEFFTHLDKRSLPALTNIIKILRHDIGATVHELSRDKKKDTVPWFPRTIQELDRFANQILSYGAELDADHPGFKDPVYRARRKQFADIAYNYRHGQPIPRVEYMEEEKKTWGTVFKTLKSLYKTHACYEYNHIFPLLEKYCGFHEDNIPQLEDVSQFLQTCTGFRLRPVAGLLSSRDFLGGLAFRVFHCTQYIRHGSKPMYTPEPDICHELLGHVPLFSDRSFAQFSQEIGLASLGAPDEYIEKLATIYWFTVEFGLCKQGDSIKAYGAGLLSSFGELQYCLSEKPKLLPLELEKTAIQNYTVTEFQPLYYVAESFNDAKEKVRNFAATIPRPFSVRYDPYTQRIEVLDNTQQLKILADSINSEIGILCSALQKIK
Assay: Enzyme kinetic analysis of recombinant PAH activity
Assay type: biochemical
Conditions: 100 μM compound; 75 μM BH4, L-Phe 0-1 mM; preincubated; mean ± S.E.
So I've got a bunch of compounds here, and I need their h (Hill coefficient), L-Phe values.
Reply with the value as a number alone.

# return recorded h (Hill coefficient), L-Phe for input Cc1ccnc(-n2c(=S)[nH]c3sc(C)c(C)c3c2=O)c1
1.6

Provide one value: measured h (Hill coefficient), L-Phe of Nc1c(-c2ccc3ccccc3n2)c2ccc([N+](=O)[O-])cc2c(=O)n1Cc1ccccc1
1.9

Please give the documented h (Hill coefficient), L-Phe of Cn1cnc([N+](=O)[O-])c1N1CCN(C(c2ccccc2)c2ccccc2)CC1
1.8

Using known records, supply h (Hill coefficient), L-Phe for Cc1onc(-c2ccccc2)c1-c1n[nH]c(N)c1C#N
2.6

---

Target: R68S-PAH (Homo sapiens, UniProt P00439, R68S)
Construct: made in house; host or cells: E. coli
Sequence (P00439 1-452 R68S): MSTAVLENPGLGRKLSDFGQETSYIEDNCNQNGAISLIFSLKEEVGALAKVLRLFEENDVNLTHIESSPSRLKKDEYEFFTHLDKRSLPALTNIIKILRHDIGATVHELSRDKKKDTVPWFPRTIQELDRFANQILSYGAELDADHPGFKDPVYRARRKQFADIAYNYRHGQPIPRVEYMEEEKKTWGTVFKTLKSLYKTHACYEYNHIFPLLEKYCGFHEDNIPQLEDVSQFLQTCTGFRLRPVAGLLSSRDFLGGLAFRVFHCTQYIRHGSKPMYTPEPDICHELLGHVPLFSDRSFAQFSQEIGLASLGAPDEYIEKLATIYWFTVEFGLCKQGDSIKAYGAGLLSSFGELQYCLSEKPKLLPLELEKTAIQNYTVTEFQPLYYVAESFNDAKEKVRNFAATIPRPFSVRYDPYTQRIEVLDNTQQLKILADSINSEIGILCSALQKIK
Experiment: ANS-monitored thermal unfolding of R68S-PAH
Type: binding
Conditions: 100 μM compound; mean ± SD
endpoint: T0.5 PAHR68S (°C)
Quick note: give the figure in °C, leave out the unit.

Please give measured T0.5 PAHR68S of the following entry: Nc1c(-c2ccc3ccccc3n2)c2ccc([N+](=O)[O-])cc2c(=O)n1Cc1ccccc1
57.1

Give reported T0.5 PAHR68S value for Cc1ccnc(-n2c(=S)[nH]c3sc(C)c(C)c3c2=O)c1
50.5

Give reported T0.5 PAHR68S value for Cn1cnc([N+](=O)[O-])c1N1CCN(C(c2ccccc2)c2ccccc2)CC1
52.1

Kindly indicate its recorded T0.5 PAHR68S. Item: Cc1onc(-c2ccccc2)c1-c1n[nH]c(N)c1C#N
50.0

---

Target: PAH103-428 (catalytic domain) (Homo sapiens)
Construct: made in house; host or cells: E. coli
Sequence (P00439 103-428): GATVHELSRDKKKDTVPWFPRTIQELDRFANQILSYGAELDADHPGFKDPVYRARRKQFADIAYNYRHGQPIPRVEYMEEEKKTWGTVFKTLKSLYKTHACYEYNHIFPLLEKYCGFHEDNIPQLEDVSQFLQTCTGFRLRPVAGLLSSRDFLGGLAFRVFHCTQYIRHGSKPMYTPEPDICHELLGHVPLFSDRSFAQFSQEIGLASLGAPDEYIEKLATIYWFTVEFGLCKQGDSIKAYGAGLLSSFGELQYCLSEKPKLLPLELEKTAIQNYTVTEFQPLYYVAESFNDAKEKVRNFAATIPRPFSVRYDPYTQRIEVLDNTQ
Assay: ANS-monitored thermal unfolding of PAH103-428
Format: binding
Conditions: 100 μM compound; mean ± SD
Exercise: state measured T0.5 PAH103-428 for each of the compounds provided.
Please report the result as a number followed by the unit.

Quickly give me recorded T0.5 PAH103-428 for Cn1cnc([N+](=O)[O-])c1N1CCN(C(c2ccccc2)c2ccccc2)CC1 [Compound 6]
53.3 ± 1.5 °C

Identify measured T0.5 PAH103-428 associated with Nc1c(-c2ccc3ccccc3n2)c2ccc([N+](=O)[O-])cc2c(=O)n1Cc1ccccc1 [Compound 11]
55.0 ± 1.3 °C

Please look at this compound and report its T0.5 PAH103-428: Cc1ccnc(-n2c(=S)[nH]c3sc(C)c(C)c3c2=O)c1 [Compound 13]
46.1 ± 0.7 °C

Look up and state reported T0.5 PAH103-428 for Cc1onc(-c2ccccc2)c1-c1n[nH]c(N)c1C#N [Compound 5]
49.2 ± 1.2 °C

Values compiled from patent US8338423B2.
